B1: LINE1-full (parent)
chain: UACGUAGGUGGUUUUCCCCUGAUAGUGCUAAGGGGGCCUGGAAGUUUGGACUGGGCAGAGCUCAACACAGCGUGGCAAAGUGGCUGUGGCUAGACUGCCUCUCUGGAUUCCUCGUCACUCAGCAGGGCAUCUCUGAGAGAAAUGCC

Variants of: B1
method: self-cleavage, relative activity (ratio to wild type); higher = more cleavage; in vitro, sequencing; the parent is a self-cleaving ribozyme
recorded_metric: self-cleavage
Numbers only.

1) UACGUAGGUGGUUUUCCCCUGAUAGUGCUAAGGGGGCCUGGAAGUUUGGACUGGGCAGAGCUCAACACAGCGUGGCAAAGUGGCUGCGGCUAGACUGCCUCUCUGGAUUCCUCGUCACUCAGCAGGGCAUUUCUGAGAGAAAUGCC [U87C C131U] = 0.15
2) UACGUAGGUGGUUUUCCCCUGAUAGUGCUAAGGGGGUCUGGAAGUUUGGACUGGGCAGAGCUCAACACAGCGUGGCAAAGUGGCUGUGGCUAGACUGCCUCUCAGGAUUCCUCGUCACUCAGCAGGGCAUCUCUGAGAGAAAUGCC [C37U U104A] = 0.59
3) UACGUAGGUGGUUUUCCCCUGAUAGUGCUAAGGGGGCCUGGAAGUUUGGACUGGGCAGAGCUCAACACAGCGUGGCAAAGUGGCUGUGGCUAGACUGCCUCUCUGGACUCCUCGUCACUCAGCAGUGCAUCUCUGAGAGAAAUGCC [U108C G126U] = 2.03
4) UACGUAGGUGGUUUUCCCCUGAUAGUGCUAAGGGGGCCUGGCAGUUUGGACUGGGCAGAGCUCAACACAGCGUGGCAAAGUGGCUGUGGCUAGACUGCCUCUCUGGAUUCCUCGUCACUCAGCAGGGCAUCUCUGAGAGAAAUGUC [A42C C145U] = 1.53
5) UACGUAGGUGGUUUUCCCCUGAUAGUGCUAAGGGGGCCUGGAAGUUUGGACUGGGCAGAGCUCAACACAGCGUGGCAAAGUGGCUGUGGCUAGACUGCCUCUCUGGAUCCCUCGUCACUCAGCAGGGCAACUCUGAGAGAAAUGCC [U109C U130A] = 1.24

## Input Give the measured self-cleavage for UACGUAGGUGGUUUUCCCCUGAUAGUGCUAAGGGGGCCUGGAAGUUUGGACUGCGCAGAGCUCAACACAGCGUGGCAAAGUGGCUGUGGCUAGACUGCCUCUCUGGAUUCCUCGUCACUCAGCAGGGCAUCUCUGAGAGAAAAGCC [G54C U143A]
## Output 1.3
